- SUBJECT OF TEST: PDE10A (H-PDE10A2, Human Phosphodiesterase 10A2) (Homo sapiens (Human), UniProt Q9Y233)
- Sequence (Q9Y233 267-1055): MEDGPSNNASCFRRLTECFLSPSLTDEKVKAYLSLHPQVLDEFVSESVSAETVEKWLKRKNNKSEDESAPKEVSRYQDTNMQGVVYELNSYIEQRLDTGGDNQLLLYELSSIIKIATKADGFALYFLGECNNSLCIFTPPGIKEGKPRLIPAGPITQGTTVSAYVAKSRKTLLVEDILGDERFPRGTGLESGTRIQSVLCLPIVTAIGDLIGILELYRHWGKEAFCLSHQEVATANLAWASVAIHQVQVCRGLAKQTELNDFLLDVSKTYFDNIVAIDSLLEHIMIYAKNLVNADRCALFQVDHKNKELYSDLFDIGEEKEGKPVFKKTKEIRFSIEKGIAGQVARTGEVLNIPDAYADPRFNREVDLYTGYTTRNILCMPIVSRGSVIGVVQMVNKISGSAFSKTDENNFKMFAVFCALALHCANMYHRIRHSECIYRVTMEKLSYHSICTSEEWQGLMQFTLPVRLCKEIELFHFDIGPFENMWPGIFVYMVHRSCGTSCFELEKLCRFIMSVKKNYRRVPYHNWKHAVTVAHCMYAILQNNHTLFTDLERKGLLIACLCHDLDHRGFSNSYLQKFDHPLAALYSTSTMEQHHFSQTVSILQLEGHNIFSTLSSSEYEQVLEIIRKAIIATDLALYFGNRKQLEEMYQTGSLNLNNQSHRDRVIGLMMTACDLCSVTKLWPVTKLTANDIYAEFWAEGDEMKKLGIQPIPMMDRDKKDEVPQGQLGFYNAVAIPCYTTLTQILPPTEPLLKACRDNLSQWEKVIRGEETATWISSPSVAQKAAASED
- ASSAY REMARKS: Measurement of PDE10A inhibitory activity-1 (3H-cAMP, recombinant enzyme)
- Format: biochemical
- REPORTED CONDITIONS: H-PDE10A2, 64 nM cAMP, 25° C., 2 hours; p-toluenesulfonate
RECORDED METRIC: pIC50
As a rule, pIC50 stands for the negative log10 of the concentration, concentration in M.

Lookup: Give me measured pIC50, please, for this compound: COCc1ccc(C(C)=O)c2sc(C(=O)Nc3cc(CN4CC[C@@H](O)C4)c4ccccc4n3)c(C)c12 [Example 41, p-toluenesulfonate]
Found: 8.89
